measured target: D(1A) dopamine receptor (Homo sapiens)
method summary: Antagonist of Human D 1 Dopamine Receptor: qHTS; further: on the % scale 0 is the no-effect control and ±100 the full control effect
assay setup: HEK293 TREx D1 cells, calcium flux, dopamine EC80; at 10 µM; stronger effect = lower value
In all, about 360,000 compounds went through this assay and about 11,000 (3.1%) were called active. Shown is part of a subset that was picked to be rich in actives.
parameter measured: activity change, negative = inhibition (%)

1. CC1Sc2ccc(S(=O)(=O)CCC(=O)NCc3ccccc3Cl)cc2NC1=O (stereo unspecified) ... -9.63
2. CCOC(=O)c1c(NC(=O)CSc2cn(CC)c3ccccc23)sc2c1CCC2 ... -30.9
3. O=C1Nc2cc(Cl)c(Cl)cc2N(O)N1c1ccccc1Cl ... -7.41
4. O=C1Nc2cc(Cl)c(Cl)cc2N(O)N1c1cc(Cl)cc(Cl)c1 ... -76.7
5. O=C(Nc1cccc(Cl)c1)c1csnn1 ... 0.926
6. Cc1cccc(N2CCN(C(=O)CCS(=O)(=O)c3ccc4c(c3)NC(=O)C(C)S4)CC2)c1C (stereo unspecified) ... -41.4

* * *

The entries below come with measured activity change, negative = inhibition values attached.
measured target: D(1A) dopamine receptor (Homo sapiens) (UniProt P21728)
Sequence (P21728 whole entry, looked up): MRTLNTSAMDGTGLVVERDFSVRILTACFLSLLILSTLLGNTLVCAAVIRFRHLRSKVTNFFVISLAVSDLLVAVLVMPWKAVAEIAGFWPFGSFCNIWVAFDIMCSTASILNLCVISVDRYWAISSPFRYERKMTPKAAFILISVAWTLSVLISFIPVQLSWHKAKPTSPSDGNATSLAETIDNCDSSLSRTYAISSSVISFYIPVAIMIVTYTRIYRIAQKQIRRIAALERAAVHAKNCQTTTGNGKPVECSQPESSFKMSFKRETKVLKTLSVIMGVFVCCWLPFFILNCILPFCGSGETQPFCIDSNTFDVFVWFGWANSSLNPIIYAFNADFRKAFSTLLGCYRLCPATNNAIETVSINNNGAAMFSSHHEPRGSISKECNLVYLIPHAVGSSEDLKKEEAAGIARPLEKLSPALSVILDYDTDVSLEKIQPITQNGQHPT
method summary: Antagonist of Human D 1 Dopamine Receptor: qHTS; further: on the % scale 0 is the no-effect control and ±100 the full control effect
assay setup: HEK293 TREx D1 cells, calcium flux, dopamine EC80; at 10 µM; stronger effect = lower value
Among all 360,000 compounds or so, about 11,000 (3.1%) were called active. The sample holds actives, similar compounds and a random draw of the others, so the mix is not that of the screen.
parameter measured: activity change, negative = inhibition (%)

1) CCc1ccccc1NC(=O)N1CCC2(CC1)Oc1ccccc1C(=O)N2Cc1ccccc1F ... -12.2
2) CCn1cc(C(=O)NCc2ccccc2)c(=O)c2cc(S(=O)(=O)N3CCCCC3)ccc21 ... 1.17
3) COc1ccc(C(C[N+](=O)[O-])n2nc(C)cc2C)cc1 (stereo unspecified) ... 13.7
4) CCOC(=O)CSc1nnc(NC(=O)c2cccc(S(=O)(=O)N3CCCC3)c2)s1 ... -6.95
5) CCOc1ccc(-c2cc3nc(C4CCN(C(=O)OC(C)(C)C)CC4)c(C(=O)Nc4cccc(CC)c4)cn3n2)cc1 ... 2.76
6) CC1CCCN(c2nc3c(S(=O)(=O)c4ccc(C(C)C)cc4)nnn3c3ccsc23)C1 (stereo unspecified) ... -10.6
7) CCc1ccc(CNCc2c(C(=O)O)n(Cc3ccc(F)cc3Cl)c3cc(OC)ccc23)cc1 ... 6.05
8) CC(=O)Nc1ccc(/C=N/Nc2ccc(C(=O)c3c(C)cc4ccccn34)cc2[N+](=O)[O-])cc1 ... -18.5
9) COc1ccc(N2CCN(C(=O)CSCc3nc(-c4ccccc4Cl)oc3C)CC2)cc1 ... -24.8
10) NC(=O)C1CCN(C(=O)c2cccc(NC(=O)c3nsc4ccccc34)c2)CC1 ... 7.53
11) Cc1ccc(NC(=S)N(CCN(C)C)Cc2cccs2)cc1C ... -42.5
12) Cc1ccccc1NC(=S)N(CCCN1CCOCC1)Cc1cccs1 ... -5.87
13) CCC(CC)c1nnc(NC(=O)C2=COCCO2)s1 ... -42.7
14) O=C(COC(=O)[C@H](Cc1ccccc1)NC(=O)c1cccs1)Nc1cc(F)ccc1F ... -9.37
15) CC(=O)c1ccc(NC(=O)c2nc(-c3ccc(C)cc3)n3c2CCCCC3)cc1 ... -2.03
16) O=C(CO/N=C/c1ccc(OC(F)F)cc1)NCc1ccc(F)cc1 ... -6.98
17) CCCN1CN=C(NS(=O)(=O)c2ccc(NC(C)=O)cc2)NC1 ... -3.05
18) Cc1csc(NC(=O)C2=COCCO2)n1 ... -2.15
19) Cc1ccccc1NC(=O)Cn1c(=O)n(CC2CCC(C(=O)NCCc3ccccc3)CC2)c(=O)c2ccccc21 (stereo unspecified) ... -13.6
20) Cc1cc(C(=O)NC2CCN(Cc3ccccc3)CC2)n[nH]1 ... -5.73
21) Cc1ccc(Cl)cc1NC(=S)N(CCN(C)C)Cc1cccs1 ... -0.901

* * *

measured target: D(1A) dopamine receptor (Homo sapiens) (UniProt P21728)
method summary: Antagonist of Human D 1 Dopamine Receptor: qHTS; further: on the % scale 0 is the no-effect control and ±100 the full control effect
assay setup: HEK293 TREx D1 cells, calcium flux, dopamine EC80; at 10 µM; stronger effect = lower value
Out of some 360,000 compounds screened, about 11,000 (3.1%) were called active. Shown is part of a subset that was picked to be rich in actives.
Listed here are molecules together with their documented activity change, negative = inhibition.
parameter measured: activity change, negative = inhibition (%)

1. CC(C)(C)c1ccc(C(CC(=O)O)NS(=O)(=O)Cc2ccccc2)cc1 (stereo unspecified) ... -2.49
2. Cc1ccc(-c2noc(CSc3nnc(-c4ccc(Cl)cc4)n3C)n2)cc1 ... 0.344
3. CCCOc1ccc(C2=CSC3=NCCN23)cc1Cl ... 3.06
4. CCOC(=O)c1ccccc1NC(=O)c1nn(-c2ccc(OC)c(Cl)c2)c(=O)c2c1c1ccccc1n2C ... 5.56
5. NS(=O)(=O)c1ccc(CNC(=O)c2cccc(Oc3ccccc3)c2)cc1 ... -38.4
6. CCC1SC2=NCCN2C1(O)c1ccc(Cl)cc1 (stereo unspecified) ... -31.5
7. CCOC(=O)c1c(NC(=O)COc2cc(C)ccc2C(C)C)sc(C)c1C ... 8.46
8. CCOc1ccc(NC(=O)c2c(NC(=O)Cc3ccccc3)sc3c2CCCCC3)cc1 ... 0.456
9. c1ccc(-c2ccccc2OCCN2CCCCC2)cc1 ... 8.41
10. Cc1ccc(C)c(N2CCN(C(=O)Cn3nc(C)c4sc5ccccc5c4c3=O)CC2)c1 ... 5.73
11. COc1ccccc1NC(=O)[C@H](COCc1ccccc1)NC(=O)OC(C)(C)C ... -13.2

* * *

measured target: D(1A) dopamine receptor (Homo sapiens)
method summary: Antagonist of Human D 1 Dopamine Receptor: qHTS; further: on the % scale 0 is the no-effect control and ±100 the full control effect
assay setup: HEK293 TREx D1 cells, calcium flux, dopamine EC80; at 10 µM; stronger effect = lower value
About 11,000 (3.1%) of roughly 360,000 compounds were called active. The sample as a whole holds a higher share of actives than the screen did.
parameter measured: activity change, negative = inhibition (%)

1. COc1ccc(OCC(=O)NCCS(=O)(=O)N2CCN(c3ccc(F)cc3)CC2)cc1 ... -3.53
2. Cc1ccc2[nH]c(=O)c(CN(CC3COCCO3)C(=O)Nc3ccccc3C)cc2c1 (stereo unspecified) ... -8.28
3. COc1cccc(CNC(=O)c2ccc3c(Cl)c4c(nc3c2)CCCC4)c1 ... -2.7
4. CCOC(=O)c1ccc(NC(=O)Cn2cc(S(=O)(=O)Cc3ccccc3F)c3ccccc32)cc1 ... 16.6
5. CC(=O)Nc1ccc(NS(=O)(=O)c2ccc3c(c2)NC(=O)CC(=O)N3)cc1 ... 19.3
6. COc1cc(C(CCN2CCN(c3ccccc3)CC2)c2c(OC)cc(OC)c3ccc(=O)oc23)cc(OC)c1OC (stereo unspecified) ... -74
7. Cc1cc2oc(C(=O)N(Cc3ccc(Cl)cc3)Cc3ccco3)c(C)c2cc1Cl ... -1.03
8. Cc1ccc2nc(SCC(=O)NC3CCCC3)[nH]c2c1 ... 1.64
9. COc1ccc(CN2C(=O)C(NC(=O)c3cccc(C)c3)(C(F)(F)F)N=C2c2ccccc2)cc1 (stereo unspecified) ... 2.79
10. Cc1nn(Cc2ccc(C(=O)N3N=C(C(F)F)CC3(O)C(F)F)cc2)c(C)c1[N+](=O)[O-] (stereo unspecified) ... -31.2
11. Cn1cccc1C(=O)NNC(=O)COc1ccc(Br)cc1 ... 16.4
12. Cc1ccn(CC(=O)N2N=C(C(F)F)CC2(O)C(F)F)n1 (stereo unspecified) ... 3.73
13. CC(=O)Nc1ccc(NS(=O)(=O)c2cc(C)sc2C)cc1 ... -48.1
14. CCOC(=O)c1ccc(NC(=O)CCn2cnnn2)cc1 ... 14.2
15. COc1ccc(CCNC(=O)c2ccc(-n3c(C)cc4c3CCCC4)cc2)cc1OC ... -15.3
16. CSc1ccccc1OCc1cc(C(=O)N(C)CCc2c(C)n[nH]c2C)no1 ... -4.34
17. Cc1cccc(-c2nc(SCC(=O)Nc3cc(C)on3)c3c(=O)n(C)c(=O)n(C)c3n2)c1 ... -1.46
18. O=C(Nc1ccc(O)c(-c2nc3ccccc3o2)c1)c1ccc(-c2cccc(Cl)c2)o1 ... 8.95
19. CCN1CCN(CCCNC(=O)c2cnn(-c3ccc(C)cc3C)c2C2CCN(C(=O)OC(C)(C)C)CC2)CC1 ... 6.05
20. Cc1cccc(N2CCN(C(=O)CCSCc3ccccc3F)CC2)c1C ... 10
21. COc1cc(NC(=O)c2nn(-c3ccc(C)cc3)c(=O)c3c2c2ccccc2n3C)cc(OC)c1OC ... -20.1
22. COc1ccccc1N1CCN(S(=O)(=O)CCNC(=O)COc2ccc(F)cc2)CC1 ... -4.69
23. COc1cc(Cl)ccc1OCc1cc(C(=O)N(C)CCc2c(C)n[nH]c2C)no1 ... -50
24. NS(=O)(=O)c1ccc(CCNc2nc(C(F)(F)F)nc3ccccc23)cc1 ... -36
25. COc1cccc(-c2nnc(SCC(=O)N3CCC(C)CC3)o2)c1 ... 2.47
26. CCC(C(=O)OCC(=O)Nc1ccc(C(=O)Nc2ccc(OC)cc2)cc1)c1ccccc1 (stereo unspecified) ... -57.6
27. Cc1ccc(CNS(=O)(=O)c2ccc(C(=O)N(C)C)s2)cc1 ... 5.34
28. COc1ccc(CCNC(=O)c2ccc3c(c2)sc2nc(-c4ccc(C)cc4)cn23)cc1OC ... -5.29
29. O=C(COc1ccc(Cl)cc1)NCCS(=O)(=O)N1CCN(c2ccc(F)cc2)CC1 ... -39.2
30. Cc1cccc(C(=O)NCCCN2CCCC2=O)c1 ... -31.5
31. CN1c2ccc(Cl)cc2-c2nc(SCC(=O)Nc3cc(F)ccc3F)ncc2S1(=O)=O ... 24.7
32. COc1cccc(CNC(=O)c2ccc3c(c2)N(Cc2ccc(C(F)(F)F)cc2)C(=O)c2ccccc2S3)c1OC ... -2.43
33. Cc1ccc(C(C)NC(=O)Cn2nc(C)c([N+](=O)[O-])c2C)cc1 (stereo unspecified) ... -12
34. Cc1cccc(OCC(=O)N(Cc2ccc(C(C)C)cc2)Cc2ccco2)c1C ... -14.7
35. COc1ccccc1N1CCN(Cc2cc(OC)c3c(c2)OCO3)CC1 ... -0.813
36. CCC(C(=O)OCC(=O)Nc1ccccc1-c1ccccc1)c1ccccc1 (stereo unspecified) ... 5.02
37. CCc1ccc(C2CC(=O)c3c([nH]c(C(=O)OCc4ccc(C)cc4)c3C)C2)cc1 (stereo unspecified) ... -10.1
38. CC(=O)Nc1cccc(NC(=O)CSc2nccn2Cc2ccc3c(c2)OCO3)c1 ... 1.91
39. COc1cc(OC)c2ccc(=O)oc2c1C(CCN1CCN(c2ccccc2)CC1)c1ccc2c(c1)OCO2 (stereo unspecified) ... -83.8
40. CCN(c1ccc(Cl)cc1)S(=O)(=O)c1nnc(NC(=O)c2ccco2)s1 ... -1.57
41. CCc1ccc(C(CNc2nc(C(F)(F)F)nc3ccccc23)N(C)C)cc1 (stereo unspecified) ... 26.8
